// read-out IC50, gathered for Serine/threonine-protein kinase pim-2 (Homo sapiens) from published studies
Mark met only for IC50 values smaller than 1 nM; exact matches and larger values are not met.

The following molecules have reported results that may help.
{"smiles_text": "CCc1cc(F)c(-c2nc(C(=O)Nc3cnccc3N3C[C@@H](N)[C@H](O)[C@@H](C)C3)ccc2F)c(F)c1", "class_label": "met"}
{"smiles_text": "FC(F)(F)Oc1cccc(-n2nnc3ccc(N4CCNCC4)nc32)c1", "class_label": "not met"}
{"smiles_text": "COCCNc1cncc(-c2cccc(/C=C/C(=O)O)c2)n1", "class_label": "not met"}
{"smiles_text": "CSc1cc(F)c(-c2nc(C(=O)Nc3cnccc3N3C[C@@H](N)[C@H](O)[C@@H](C)C3)ccc2F)c(F)c1", "class_label": "met"}
{"smiles_text": "CN1CCC(CNc2nn3c(-c4ccc(O)cc4)nnc3c3c2N(C)CCO3)CC1", "class_label": "not met"}

Problem: Does the reported IC50 of the following molecule sit strictly below 1 nM? `O=C(O)/C=C/c1cccc(-c2cncc(NCC3CCNCC3)n2)c1`
Solution: not met

Problem: Next up: `CCOCc1cc(F)c(-c2nc(C(=O)Nc3cnccc3[C@H]3C[C@@H](N)[C@H](O)[C@@H](C)C3)ccc2F)c(F)c1`
Solution: not met

###

// read-out IC50, gathered for Serine/threonine-protein kinase pim-2 (Homo sapiens) from published studies
// units = nM; emit number, no label

Here's what some known entries look like.
{"smiles_text": "N[C@H]1C[C@H](OC(=O)c2ccccc2)CN(c2ccncc2NC(=O)c2csc(-c3c(F)cccc3F)n2)C1", "IC50 / nM": 479}
{"smiles_text": "C[C@H]1C[C@@H](c2ccncc2NC(=O)c2csc(C3CCCCC3)n2)C[C@@H](N)[C@@H]1O", "IC50 / nM": 250}
{"smiles_text": "NCCCNc1cncc(-c2cccc(/C=C/C(=O)O)c2)n1", "IC50 / nM": 27}

Problem: Checklist item: IC50 tested on Serine/threonine-protein kinase pim-2 (Homo sapiens), entry `C[C@@H]1C[C@H](N)C[C@H](c2ccncc2NC(=O)c2ccc(F)c(-c3c(F)cc(C4(O)COC4)cc3F)n2)C1` , value?
Solution: 2.42

Problem: Next up: `CNCCN(C)c1cncc(-c2cccc(/C=C/C(=O)O)c2)n1`
Solution: 240

Problem: Next up: `C[C@H]1CN(c2ccncc2NC(=O)c2ccc(F)c(-c3c(F)ccc(OCCO)c3F)n2)C[C@@H](N)[C@@H]1O`
Solution: 1.36

Problem: Next up: `O=C1NC(=O)/C(=C/c2cccc(Br)c2)S1`
Solution: 90

Problem: Next up: `C[C@H]1CN(c2ccncc2NC(=O)c2ccc(F)c(-c3c(F)cc(C4(O)CC4)cc3F)n2)C[C@@H](N)[C@@H]1O`
Solution: 0.68

Problem: Next up: `C[C@@H]1C[C@H](N)C[C@H](c2ccncc2NC(=O)c2ccc(F)c(-c3c(F)ccc(OC[C@H](O)CO)c3F)n2)C1`
Solution: 3.97

Problem: Next up: `N[C@H]1C[C@@H](C(F)(F)F)CN(c2ccncc2NC(=O)c2csc(-c3c(F)cccc3F)n2)C1`
Solution: 3

###

// read-out IC50, gathered for Serine/threonine-protein kinase pim-2 (Homo sapiens) from published studies
Mark condition met only for IC50 values smaller than 30 nM; exact matches and larger values are condition not met.

The following compounds have reported results that may help.
{"compound": "CCOC(=O)c1cc2nnn(-c3ccc(OC)cc3)c2nc1NCc1ccc(F)cc1", "class_label": "condition not met"}
{"compound": "CC(C)NC(=O)c1ccc(F)c(-c2ccc(N)c(-c3cc4c(N5CCC[C@H](N)C5)ccnc4cn3)n2)c1", "class_label": "condition not met"}
{"compound": "COC(C)(C)c1cc(F)c(-c2nc(C(=O)Nc3cnccc3[C@@H]3C[C@H](C)C[C@H](N)C3)ccc2F)c(F)c1", "class_label": "condition met"}
{"compound": "O=C1NC(=O)/C(=C/c2ccc(F)cc2)S1", "class_label": "condition not met"}
{"compound": "Nc1ccc(-c2nccs2)nc1-c1cc2c(N3CCC[C@H](N)C3)ccnc2cn1", "class_label": "condition met"}

Next item in the queue.
Problem: Does the reported IC50 of the following compound sit strictly below 30 nM? `FC(F)(F)c1cccc(-n2nnc3cc(Cl)c(NCC4CCNCC4)nc32)c1`
Solution: condition not met
